Recorded GI50, one value per entry.
System: NCI-H522 lung
Test: NCI tumour cell line growth inhibition, 48 h

[
  {
    "COMPOUND": "COc1cccc2c1C(=O)c1c(O)c3c(c(O)c1C2=O)C[C@@](O)(C(=O)CO)C[C@@H]3O[C@H]1C[C@H](N)[C@@H](O)[C@H](C)O1",
    "GI50": "101 nM"
  }
]

-- ask Fill in: GI50 of COc1ccc(-n2cc(-c3cc(OC)c(OC)c(OC)c3)nc2SCc2ccccc2)cc1OC is ___
-- reply 41800 nM

-- ask What value of GI50 has been recorded for this entry: CCCCCCCCCCC(C(O)c1ccccc1)N1CCCCC1 (stereo not drawn)
-- reply 1940 nM

-- ask Quick check: GI50 of Cc1cc(=O)[nH]c2cc3c(c4c(n3Cc3ccc(Cl)cc3Cl)CC(C)(C)CC4=O)c(O)c12 ?
-- reply > 100000 nM

-- ask Which GI50 value is on record for Cc1cc(NCc2cc(Nc3ccnc4cc(Cl)ccc34)ccc2F)nc(N2CCN(C)CC2)n1 ?
-- reply 2220 nM

-- ask State the recorded GI50 for this entry: COc1ccccc1N1CCN(CCc2c[nH]c3cc4c(cc23)OCO4)CC1
-- reply 44200 nM

-- ask What does the data say about its GI50? Entry: Oc1[nH]c2c(Br)cccc2c1C1=Nc2ccccc2/C1=N/OCCN1CCCC1
-- reply 847 nM

* * *

Tested on: T-47D breast
Experiment: NCI tumour cell line growth inhibition, 48 h
# TGI per record follows
Quick reminder: number only, in µM, skip the unit.

-- ask Tell me reported TGI for CCOc1cc2c(cc1O)CC[C@@H]1[C@@H]2CC[C@]2(C)C(N)CC[C@@H]12 (some centres not stated) , tested with T-47D breast.
-- reply 25.3

-- ask Enter reported TGI observed with T-47D breast for O=C1C=CC[C@H](/C=C/c2ccccc2)O1
-- reply 37.7

-- ask Please state recorded TGI (tested on T-47D breast) of O=Cc1ccccc1B(O)O
-- reply 62.4

-- ask Find the measured TGI: item CCCCCCCCCCCCOC1C(C(COC2OC(C3COC(C)(C)O3)C3OC(C)(C)OC23)NC(=O)NS(=O)(=O)c2ccccc2)OC2OC(C)(C)OC21 (configuration not stated) , target or system T-47D breast.
-- reply 39.5

* * *

Tested on: UACC-62 melanoma
Assay: NCI tumour cell line growth inhibition, 48 h
Measured TGI values are reported for all entries that follow.

[
  {
    "MOLECULE": "COC(=O)CN1SC2(SC13C(C)(C)C(=O)C3(C)C)C(C)(C)C(=O)C2(C)C",
    "TGI": "> 100 µM"
  },
  {
    "MOLECULE": "COc1ccc(-n2cc(-c3cc(OC)c(OC)c(OC)c3)nc2SCc2ccccc2)cc1OC",
    "TGI": "> 100 µM"
  },
  {
    "MOLECULE": "Cc1ccc(C2SC(N)=Nc3c2c(C)nn3C(=O)c2ccccc2O)cc1 (centres undefined)",
    "TGI": "4.27 µM"
  },
  {
    "MOLECULE": "Fc1ccccc1C1SCc2nc3ccccc3n21 (centres undefined)",
    "TGI": "> 100 µM"
  },
  {
    "MOLECULE": "O=C1C2C(c3ccccc3)NC(c3ccccc3)C1C(c1ccccc1)NC2c1ccccc1 (centres undefined)",
    "TGI": "> 100 µM"
  },
  {
    "MOLECULE": "CN1C(=O)C(c2c[nH]c3ccccc23)N(C)C(=O)C1c1c[nH]c2ccccc12 (centres undefined)",
    "TGI": "> 100 µM"
  }
]

-- ask Value lookup for TGI; key = C#C[C@]1(O)CC[C@H]2[C@@H]3CCC4=C/C(=N/NC(=O)c5cccc6cc7ccccc7nc56)CC[C@@H]4[C@H]3CC[C@@]21CC
-- reply > 100 µM

-- ask Query: TGI; subject: Nc1ccc(CCSSCCc2ccc(N)cc2)cc1
-- reply 89.1 µM

-- ask Record request: TGI value, item COc1ccc(OC2OC(COC(c3ccccc3)(c3ccc(OC)cc3)c3ccc(OC)cc3)C(O)C(O)C2O)cc1 (centres undefined)
-- reply 14.1 µM

* * *

Tested on: LOX IMVI melanoma
Assay: NCI tumour cell line growth inhibition, 48 h
QUANTITY MEASURED: TGI (µM)
Number in µM, nothing else.

Sample answers from the record:
[
  {
    "RECORD SMILES": "COc1cc(Cl)cc(-c2nn(-c3cccc(NC(=O)Nc4cc(C(F)(F)F)cc(C(F)(F)F)c4)c3)cc2-c2ccncc2)c1",
    "DISPLAY UNIT": "µM",
    "TGI": 2.29
  },
  {
    "RECORD SMILES": "COc1ccc(NC(=O)COCCOCCNC[C@@H]2C(=O)O[C@H]3[C@H]2CC/C(COC(=O)OC/C2=C/CC[C@@]4(C)O[C@H]4[C@H]4OC(=O)[C@@H](CN(C)C)[C@@H]4CC2)=C\\CC[C@@]2(C)O[C@@H]32)c(O)c1C(N)=O",
    "DISPLAY UNIT": "µM",
    "TGI": 11.4
  }
]

Consider now this further compound.
-- ask // query TGI value for entry O=P1(c2ccccc2)C(c2ccccc2)=CC=C1c1ccccc1
-- reply 37.8

* * *

The entries below are paired with their reported TGI.
System: DMS 273 small cell lung
Assay: NCI tumour cell line growth inhibition, 48 h

The cases that follow already have their TGI on record.
[
  {
    "COMPOUND": "Nc1c(C(=O)Nc2ccc(C3=NCCN3)cc2)cccc1C(=O)Nc1ccc(C2=NCCN2)cc1",
    "TGI": "> 100 µM"
  },
  {
    "COMPOUND": "Cc1c(C(=O)CC(=O)C(=O)Nc2ccc(Cl)cc2)[n+](=O)c2ccccc2n1[O-]",
    "TGI": "> 100 µM"
  },
  {
    "COMPOUND": "O=C(O)CCSC(=O)Nc1ccccc1F",
    "TGI": "> 100 µM"
  },
  {
    "COMPOUND": "COc1ccc2c(c1)Oc1cc(O)ccc1[C@@H]2c1ccccc1C(=O)NC(C)c1ccccc1 (stereo partly specified)",
    "TGI": "28.2 µM"
  },
  {
    "COMPOUND": "CC(O)c1ccc[n+](Cc2ccccc2)c1 (stereo unspecified)",
    "TGI": "> 400 µM"
  },
  {
    "COMPOUND": "CCCCN(Cc1ccccc1)C(=NC#N)N(Cc1ccccc1)Cc1ccccc1",
    "TGI": "43.6 µM"
  },
  {
    "COMPOUND": "COC(=O)[C@]12CC=C3O[C@@H]4OC5(CCCCC5)O[C@@H]4C3[C@@H]1C(=O)CCC2=O (stereo partly specified)",
    "TGI": "> 100 µM"
  },
  {
    "COMPOUND": "COC(=O)NN=C1C(C)(C)C(=O)C1(C)C",
    "TGI": "> 100 µM"
  },
  {
    "COMPOUND": "N=[N+]=CC(=O)CCC(NC(=O)C(CCC(=O)C=[N+]=N)NC(=O)CCC(N)C(=O)O)C(=O)O (stereo unspecified)",
    "TGI": "> 100 µM"
  },
  {
    "COMPOUND": "Cn1c(Cl)cn2c3nc4ccccc4nc3c(=O)c(C#N)c12",
    "TGI": "> 100 µM"
  }
]

-- ask What does the record list as TGI for COC(=O)NC12CC3CC(CC(F)(C3)C1)C2 ?
-- reply > 100 µM

* * *

System: A549 NSCLC
Experiment: NCI tumour cell line growth inhibition, 48 h
Parameter TGI: see the listing below.
Field: numeric (µM). Do not append units.

Known TGI results, listed for orientation:
[
  {
    "COMPOUND": "N#CC1=C(N)Oc2c(sc3c(Br)cccc23)C1c1ccc(Br)cc1 (stereo not given)",
    "DISPLAY UNIT": "µM",
    "TGI": 2.23
  },
  {
    "COMPOUND": "OC(CNCC1CCCO1)Cn1c2ccc(Cl)cc2c2cc(Cl)ccc21 (stereo not given)",
    "DISPLAY UNIT": "µM",
    "TGI": 3.69
  },
  {
    "COMPOUND": "CNCCNc1c2c(c(NCCNC)c3[nH]ccc13)C(=O)c1ccccc1C2=O",
    "DISPLAY UNIT": "µM",
    "TGI": 0.427
  }
]

-- ask I am curious: what TGI value has been reported for O=S(=O)(c1cccc2c(Cl)cccc12)N1CCCNCC1 ?
-- reply 28.2

* * *

Let's look at some compounds and their measured GI50.
System: LOX IMVI melanoma
Test: NCI tumour cell line growth inhibition, 48 h

[
  {
    "COMPOUND": "NCCN.NCCN.O=C([O-])CCl.O=C([O-])CCl.[Co+3].[O-][Cl+3]([O-])([O-])[O-]",
    "MEASUREMENT TARGET": "LOX IMVI melanoma",
    "GI50": "> 100 µM"
  },
  {
    "COMPOUND": "COC(=O)C1=C(C(=O)OC)SC(=C(Cl)C(=S)Nc2ccccc2O)S1",
    "MEASUREMENT TARGET": "LOX IMVI melanoma",
    "GI50": "12.9 µM"
  }
]

-- ask I'd like to know its GI50. The compound in question is COc1cc(-n2cc(-c3ccc(Cl)cc3)nc2SCc2cccc(C#N)c2)cc(OC)c1OC
-- reply > 100 µM

-- ask Please give the measured GI50 for this compound: O=c1[nH]c(=O)c2cc(C3CC(O)C(CO)O3)ccc2[nH]1 (centres undefined)
-- reply > 100 µM

Source of measurements: PubChem BioAssay (NCI)
